TEST SYSTEM: Serine/threonine-protein kinase D1 (Homo sapiens) (UniProt Q15139)
Sequence (Q15139 whole entry, looked up): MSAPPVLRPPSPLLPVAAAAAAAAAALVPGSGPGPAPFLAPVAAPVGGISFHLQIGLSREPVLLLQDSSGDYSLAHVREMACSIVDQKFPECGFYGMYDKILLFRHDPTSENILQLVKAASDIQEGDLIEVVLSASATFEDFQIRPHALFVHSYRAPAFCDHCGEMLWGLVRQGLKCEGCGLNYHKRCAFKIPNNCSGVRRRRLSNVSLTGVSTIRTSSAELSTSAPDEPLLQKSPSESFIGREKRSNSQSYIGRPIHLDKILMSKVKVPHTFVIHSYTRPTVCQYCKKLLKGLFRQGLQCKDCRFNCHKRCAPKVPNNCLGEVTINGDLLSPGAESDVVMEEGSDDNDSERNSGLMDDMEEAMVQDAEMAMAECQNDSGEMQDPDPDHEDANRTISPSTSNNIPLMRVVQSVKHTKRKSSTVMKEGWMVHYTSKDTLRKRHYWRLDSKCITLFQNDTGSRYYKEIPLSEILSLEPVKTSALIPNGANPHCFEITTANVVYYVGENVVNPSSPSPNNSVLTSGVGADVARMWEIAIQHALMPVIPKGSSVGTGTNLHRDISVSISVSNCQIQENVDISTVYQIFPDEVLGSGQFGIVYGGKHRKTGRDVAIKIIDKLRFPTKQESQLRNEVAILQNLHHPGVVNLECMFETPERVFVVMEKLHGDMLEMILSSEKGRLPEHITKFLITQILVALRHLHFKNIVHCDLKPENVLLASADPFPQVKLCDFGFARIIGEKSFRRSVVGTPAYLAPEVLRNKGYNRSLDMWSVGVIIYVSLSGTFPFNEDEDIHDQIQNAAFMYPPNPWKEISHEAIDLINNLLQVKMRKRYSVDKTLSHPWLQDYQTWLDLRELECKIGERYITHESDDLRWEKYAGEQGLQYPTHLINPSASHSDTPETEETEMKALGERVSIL
ASSAY NAME: inhibitors of human PKD1 kinase, biochemical, fluorescence polarization (AID 797)
SETTINGS: PKD1 kinase fluorescence polarization assay; hits give high values; concentration not given here
In all, about 200,000 compounds went through this assay and about 110 (0.055%) were called active. This excerpt belongs to a sample that is enriched for actives.
The entries below come with measured inhibition values attached.
State the answer as a number, implicitly in %.

For orientation, consider the following solved cases.
CCCCSc1nc2ccccc2[nH]1 -6.36
COc1ccc(NC(=O)c2sc(N3CCOCC3)nc2-c2ccccc2)c(OC)c1 -1.24
CCOC(=O)c1cnc(SCC(=O)Nc2ccccc2C(=O)OC)nc1N -2.4
CC(C)(C)c1nnc(N/N=C/c2ccc(O)cc2)n(N)c1=O -3.71
Oc1ccc2ccc3cccc[n+]3c2c1 -0.84

As a next step, examine the compound that follows.
Exercise: Fill in: inhibition of Cc1cc(C)c(C#N)c(SCC(=O)NN2CC(=O)N(c3ccccc3F)CC2=O)n1 is ___
Solution: -3.74
